# System Name: T1, Plasmodium falciparum myosin A tail domain interacting protein, residues 61–204 (PfMTIPΔ60) (Plasmodium falciparum, UniProt Q8I4W8 61-204)
# T1 construct: source: 15N-labeled for NMR; not shown: His tag, N-terminal, kept
# T1 sequence: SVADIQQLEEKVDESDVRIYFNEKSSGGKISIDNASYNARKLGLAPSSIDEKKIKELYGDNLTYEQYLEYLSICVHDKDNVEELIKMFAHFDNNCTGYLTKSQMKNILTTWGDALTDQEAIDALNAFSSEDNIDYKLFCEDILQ
# Assay Procedure: ITC; 303 K; cell with about 200 μL of 20 μM PfMTIPΔ60 in buffer A (20 mM HEPES pH 7.5, 50 mM NaCl, 1 mM TCEP); peptide added in 2 μL injections from 250 μM; single site fit; n=1
# Assay Conditions: both partners purified
Where no end group is shown, it is not given here. 8e = not defined here

- Binder: "8e-GSLLRVQAHIRKKMVAQ (reading uncertain, myosin A (PfmyoA) C-terminal tail, Plasmodium falciparum, PfmyoA(799–818) truncated at its N-terminal end to Ser 803; that chimera3 begins at Ser 803 follows from the order of the list (Leu 805, Leu 804, Ser 803); source: synthetic peptide (Fmoc-based solid-phase peptide synthesis)) [peptide–fragment chimera3 (fragment 8 functionality – glycine spacer – myoA tail from Ser 803)]"
  Kd (nM): 52
